pEC50 values for the compounds below.
molecular target: Gal4 DNA binding domain fused to the LBD of LXRα in HEK293 cells (Homo sapiens (Human), UniProt Q13133); test: LXR luciferase transcriptional reporter gene assay, agonist mode, LXRα; format: cell-based; details: agonist mode; read-out: Cell LXRα EC50
Sequence (Q13133 209-447): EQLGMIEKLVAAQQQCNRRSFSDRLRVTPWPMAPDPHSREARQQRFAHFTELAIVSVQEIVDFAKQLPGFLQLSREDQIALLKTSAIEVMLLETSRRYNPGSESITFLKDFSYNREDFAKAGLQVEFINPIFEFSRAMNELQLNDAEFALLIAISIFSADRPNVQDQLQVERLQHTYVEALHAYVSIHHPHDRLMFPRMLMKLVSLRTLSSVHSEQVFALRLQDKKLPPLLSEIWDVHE
pEC50: −log10 of the molar value.
quantity: pEC50

compound: CC(C)[C@@H]1CN(c2ccc(C#N)c(S(C)(=O)=O)c2)CCN1c1cccc(C(F)(F)F)n1 [7-38]
inequality_symbol: =
value_reported: 5.53

compound: CC[C@@H](O)c1cnc(N2CCN(c3ccc(F)c(S(C)(=O)=O)c3)C[C@H]2C(C)C)nc1C(F)(F)F (single isomer, unassigned) [Cpd No 12-7]
inequality_symbol: =
value_reported: 6.06

compound: COCCNC(=O)c1cnc(N2CCN(c3ccc(F)c(S(C)(=O)=O)c3)C[C@H]2C(C)C)nc1C(F)(F)F [17-6]
inequality_symbol: <
value_reported: 4.70

compound: CC(C)[C@@H]1CN(c2cccc(S(C)(=O)=O)c2)CCN1c1ncc(Cl)cn1 [Cpd No 7-4]
inequality_symbol: =
value_reported: 5.91

compound: CC(C)[C@@H]1CN(c2ccc(C(N)=O)c(S(C)(=O)=O)c2)CCN1c1nccc(C(F)(F)F)n1 [4-2]
inequality_symbol: =
value_reported: 5.93

compound: CC[C@H](O)c1cnc(N2CCN(c3ccc(F)c(S(C)(=O)=O)c3)C[C@H]2C(C)C)nc1C(F)(F)F (single isomer, unassigned) [12-6]
inequality_symbol: =
value_reported: 5.61

compound: COCCN(C)C(=O)c1cnc(N2CCN(c3ccc(F)c(S(C)(=O)=O)c3)C[C@H]2C(C)C)nc1C [17-26]
inequality_symbol: <
value_reported: 4.70

Ref: patent US10144715B2
